# study-target: T1, human ANGPTL8 (human, UniProt Q6UXH0 22-198)
# T1 construct: Biotinylated in the ELISA assays; also called hANGPTL8; free ANGPTL8
# T1 sequence: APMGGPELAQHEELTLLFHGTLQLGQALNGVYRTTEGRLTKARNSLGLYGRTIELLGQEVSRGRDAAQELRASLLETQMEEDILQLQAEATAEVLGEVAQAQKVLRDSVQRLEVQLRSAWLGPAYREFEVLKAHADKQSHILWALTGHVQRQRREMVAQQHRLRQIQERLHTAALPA
# run-description: single point ELISA
quantity-kind: binding result

binder	experimental-value
Ab with LC variant having a D33T mutation (SEQ ID NO:23) and a HC of SEQ ID NO:6 (antibody, human IgG4 S228P, kappa, F234A L235A, V domains shown, also called D33T Ab) VH: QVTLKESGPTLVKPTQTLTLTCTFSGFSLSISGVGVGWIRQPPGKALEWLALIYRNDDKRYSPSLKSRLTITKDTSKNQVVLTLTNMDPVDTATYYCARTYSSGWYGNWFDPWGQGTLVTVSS VL: DIVMTQTPLSLPVTPGEPASISCRSSQSLLDSTDGNTYLDWYLQKPGQSPQLLIYMLSYRASGVPDRFSGSGSGTDFTLKISRVEAEDVGIYYCMQRIEFPLTFGGGTKVEIKR	no binding
anti-ANGPTL3/8 complex Ab having a LC of SEQ ID NO:5 and a HC of SEQ ID NO:6 (antibody, human IgG4 S228P, kappa, F234A L235A, V domains shown, In the ELISA assays tested as IgG from CHO supernatants; also called the Ab) VH: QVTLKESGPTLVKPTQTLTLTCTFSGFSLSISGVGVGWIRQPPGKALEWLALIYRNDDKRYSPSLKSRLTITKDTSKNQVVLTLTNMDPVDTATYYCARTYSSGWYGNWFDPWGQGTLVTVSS VL: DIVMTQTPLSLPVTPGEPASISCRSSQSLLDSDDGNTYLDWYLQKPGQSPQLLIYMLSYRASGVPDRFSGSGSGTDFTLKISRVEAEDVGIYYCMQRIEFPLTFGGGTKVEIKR	no binding
Ab with LC variant having a E99Q mutation (SEQ ID NO:25) and a HC of SEQ ID NO:6 (antibody, human IgG4 S228P, kappa, F234A L235A, V domains shown, also called E99Q Variant Ab; E99Q Ab) VH: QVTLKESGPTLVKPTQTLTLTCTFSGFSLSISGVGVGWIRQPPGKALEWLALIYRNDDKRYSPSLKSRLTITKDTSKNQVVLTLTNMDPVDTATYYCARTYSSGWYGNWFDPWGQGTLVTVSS VL: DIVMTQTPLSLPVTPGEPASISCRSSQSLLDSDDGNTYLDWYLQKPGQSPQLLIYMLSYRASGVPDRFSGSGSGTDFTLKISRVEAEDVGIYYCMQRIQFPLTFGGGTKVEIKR	no binding

These data points were gathered from patent US20200199213A1.
